assay.remarks: S. aureus quorum sensing inhibitors, primary screen, RNAIII-GFP reporter, flow cytometry (AID 527)
assay.context: S. aureus RN6390 RNAIII-GFP reporter, AIP-induced, flow cytometry 3 h; at 2 µM
The campaign covered roughly 24,000 compounds. About 65 (0.3%) were called active.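 How the source made its calls: active means share of bacteria positive for the green fluorescent reporter and its mean brightness both inhibited by 50% or more; inactive means the rest, inconclusive results apart.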 This excerpt belongs to a sample that is enriched for actives.
Please reply with one of these outcomes: active, inactive

Request: Please let me know the test result on file for COCCCNC(=O)c1ccc2c(c1)ncn2-c1ccccc1OC .
Result: inactive

Request: Lab log entry: CC1CCC(NS(=O)(=O)c2ccc3c(c2)n(C)c(=O)c(=O)n3C)CC1 (centres undefined) — outcome as called in the assay?
Result: inactive

Request: Lab log entry: CSc1cccc(NC(=O)C2CCCN2S(=O)(=O)c2ccc3c(c2)CCC(=O)N3)c1 (centres undefined) — outcome as called in the assay?
Result: inactive

Request: How was Cn1c(C(=O)NCCN2CCc3ccccc3C2)cc2c(=O)[nH]c3ccccc3c21 classified in this test?
Result: inactive

Request: I'd appreciate the recorded outcome for COc1cc2[nH]c(=S)n(CCN3CCCCC3C)c(=O)c2cc1OC (centres undefined) from this test.
Result: inactive

Request: Assay result, entry CC1CCCCN1S(=O)(=O)c1ccc(C(=O)Nc2nnc(-c3cccs3)o2)cc1 (centres undefined) — outcome?
Result: active

Request: # lookup: test call for COc1cccc(N2C(=O)C3CCCN3C2c2ccc(F)cc2)c1 (centres undefined)
Result: inactive
